Data provenance is the supplement of paper PMC11061612.

- System: OVISE (Ovarian Carcinoma)
- protocol-description: Bliss excess, mean over the matrix (fraction); higher = more synergy
experimental-endpoint: Bliss excess
// return a plain number; no unit text

Here are 2 compounds together with their reported answers.
Prompt: Please report the recorded Bliss excess for NC1(C(=O)N[C@@H](CCO)c2ccc(Cl)cc2)CCN(c2ncnc3[nH]ccc23)CC1 [Capivasertib] + COc1nnc2ccc(N3CCC(c4ccc(OCCN5CCN(C)C(=O)[C@H]5C)cc4)CC3)nn12 [AZD5153] (first compound max 10 µM, 7x7, partner max 1 µM) .
Response: -0.0055

Prompt: Now this one: COc1nnc2ccc(N3CCC(c4ccc(OCCN5CCN(C)C(=O)[C@H]5C)cc4)CC3)nn12 [AZD5153] + CC1(C)CCC(CN2CCN(c3ccc(C(=O)NS(=O)(=O)c4ccc(NCC5CCOCC5)c([N+](=O)[O-])c4)c(Oc4cnc5[nH]ccc5c4)c3)CC2)=C(c2ccc(Cl)cc2)C1 [Venetoclax] (first compound max 1 µM, 7x7, partner max 1 µM)
Response: -0.013

Next:
Prompt: Please report the recorded Bliss excess for COc1cccc(OCCCN)c1-c1cc(Nc2cnc(C#N)cn2)n[nH]1 [Prexasertib] + C[C@@H]1COCCN1C2=NC(=NC(=C2)C3(CC3)[S@](=N)(=O)C)C4=C5C=CNC5=NC=C4 [AZD6738] (first compound max 1 µM, 7x7, partner max 10 µM) .
Response: 0.0341

###

- Tested on: SCC-9 (Oral Cavity Carcinoma)
- protocol-description: Bliss excess, mean over the matrix (fraction); higher = more synergy
experimental-endpoint: Bliss excess
// return a plain number; no unit text

Prompt: Please report the recorded Bliss excess for CC1(C)CCC(CN2CCN(c3ccc(C(=O)NS(=O)(=O)c4ccc(NCC5CCOCC5)c([N+](=O)[O-])c4)c(Oc4cnc5[nH]ccc5c4)c3)CC2)=C(c2ccc(Cl)cc2)C1 [Venetoclax] + C[C@@H](Nc1cc(F)cc(F)c1)c1cc(C(=O)N(C)C)cc2c(=O)cc(N3CCOCC3)oc12 [AZD8186] (first compound max 1 µM, 7x7, partner max 3 µM) .
Response: -0.0222

###

- System: SCC-9 (Oral Cavity Carcinoma)
- protocol-description: combination Emax (second highest fraction inhibited in the dose matrix, 72 h); higher = more inhibition; extreme values may be limits of the assay
experimental-endpoint: combination Emax
// return a plain number; no unit text

Here are 2 compounds together with their reported answers.
Prompt: Please report the recorded combination Emax for COc1cccc(OCCCN)c1-c1cc(Nc2cnc(C#N)cn2)n[nH]1 [Prexasertib] + CCc1c2c(nc3ccc(O)cc13)-c1cc3c(c(=O)n1C2)COC(=O)[C@]3(O)CC [SN-38] (first compound max 1 µM, 7x7, partner max 0.3 µM) .
Response: 0.561

Prompt: Now this one: NC1(C(=O)N[C@@H](CCO)c2ccc(Cl)cc2)CCN(c2ncnc3[nH]ccc23)CC1 [Capivasertib] + CCN(CCO)CCCOc1ccc2c(Nc3cc(CC(=O)Nc4cccc(F)c4)[nH]n3)ncnc2c1 [AZD2811] (first compound max 10 µM, 7x7, partner max 1 µM)
Response: 0.275

Next compound, please.
Prompt: Please report the recorded combination Emax for CN(CCO)CC[C@H](CSc1ccccc1)Nc1ccc(S(=O)(=O)NC(=O)c2ccc(N3CCC([C@@H](O)c4ccccc4-c4ccc(Cl)cc4)CC3)cc2)cc1S(=O)(=O)C(F)(F)F [AZD4320] + C1CN(CCC1(C(=O)N[C@@H](CCO)C2=CC=C(C=C2)Cl)N)C3=NC=NC4=C3C=CN4 [Capivasertib] (first compound max 1 µM, 7x7, partner max 3 µM) .
Response: 0.21

###

- Test system: ASH-3 (Thyroid Gland Carcinoma)
- protocol-description: combination Emax (second highest fraction inhibited in the dose matrix, 72 h); higher = more inhibition; extreme values may be limits of the assay
Entries and their combination Emax values follow.
// return a plain number; no unit text

Here are 2 compounds together with their reported answers.
Prompt: Find the measured combination Emax: item NC1(C(=O)N[C@@H](CCO)c2ccc(Cl)cc2)CCN(c2ncnc3[nH]ccc23)CC1 [Capivasertib] + CCN(CCO)CCCOc1ccc2c(Nc3cc(CC(=O)Nc4cccc(F)c4)[nH]n3)ncnc2c1 [AZD2811] (first compound max 10 µM, 7x7, partner max 1 µM) , target or system ASH-3 (Thyroid Gland Carcinoma).
Response: 0.451

Prompt: Now this one: Cc1cc2ncnn2cc1Nc1ncc2c(n1)n(C1CCOCC1)c(=O)n2C [AZD7648] + CN(C)CCCOc1ccc(-c2ccc3ncc4c(c3c2)n(C2CCOCC2)c(=O)n4C)cn1 [AZD0156] (first compound max 10 µM, 7x7, partner max 1 µM)
Response: 0.332

Next:
Prompt: Find the measured combination Emax: item CN(CCO)CC[C@H](CSc1ccccc1)Nc1ccc(S(=O)(=O)NC(=O)c2ccc(N3CCC([C@@H](O)c4ccccc4-c4ccc(Cl)cc4)CC3)cc2)cc1S(=O)(=O)C(F)(F)F [AZD4320] + CN(C)CCCOc1ccc(-c2ccc3ncc4c(c3c2)n(C2CCOCC2)c(=O)n4C)cn1 [AZD0156] (first compound max 1 µM, 7x7, partner max 1 µM) , target or system ASH-3 (Thyroid Gland Carcinoma).
Response: 0.498

###

- System: NCI-N87 (Gastric Carcinoma)
- protocol-description: combination Emax (second highest fraction inhibited in the dose matrix, 72 h); higher = more inhibition; extreme values may be limits of the assay
Entries and their combination Emax values follow.

Here are 3 molecules together with their reported answers.
Prompt: Find the measured combination Emax: item CN(CCO)CC[C@H](CSc1ccccc1)Nc1ccc(S(=O)(=O)NC(=O)c2ccc(N3CCC([C@@H](O)c4ccccc4-c4ccc(Cl)cc4)CC3)cc2)cc1S(=O)(=O)C(F)(F)F [AZD4320] + CCN(CCO)CCCOc1ccc2c(Nc3cc(CC(=O)Nc4cccc(F)c4)[nH]n3)ncnc2c1 [AZD2811] (first compound max 1 µM, 7x7, partner max 1 µM) , target or system NCI-N87 (Gastric Carcinoma).
Response: 0.571

Prompt: Now this one: CC1(C)CCC(CN2CCN(c3ccc(C(=O)NS(=O)(=O)c4ccc(NCC5CCOCC5)c([N+](=O)[O-])c4)c(Oc4cnc5[nH]ccc5c4)c3)CC2)=C(c2ccc(Cl)cc2)C1 [Venetoclax] + Cn1cnc2c(F)c(Nc3ccc(Br)cc3Cl)c(C(=O)NOCCO)cc21 [Selumetinib] (first compound max 1 µM, 7x7, partner max 3 µM)
Response: 0.242

Prompt: Now this one: COc1cccc(OCCCN)c1-c1cc(Nc2cnc(C#N)cn2)n[nH]1 [Prexasertib] + O=C(c1cc(Cc2n[nH]c(=O)c3ccccc23)ccc1F)N1CCN(C(=O)C2CC2)CC1 [Olaparib] (first compound max 1 µM, 7x7, partner max 10 µM)
Response: 0.668

Next molecule, please.
Prompt: Find the measured combination Emax: item COc1cccc(OCCCN)c1-c1cc(Nc2cnc(C#N)cn2)n[nH]1 [Prexasertib] + C=CCn1c(=O)c2cnc(Nc3ccc(N4CCN(C)CC4)cc3)nc2n1-c1cccc(C(C)(C)O)n1 [AZD1775] (first compound max 1 µM, partner max 1 µM) , target or system NCI-N87 (Gastric Carcinoma).
Response: 0.797

###

- System: VMRC-LCD (Lung Adenocarcinoma)
- protocol-description: combination Emax (second highest fraction inhibited in the dose matrix, 72 h); higher = more inhibition; extreme values may be limits of the assay
experimental-endpoint: combination Emax
// return a plain number; no unit text

Prompt: Please report the recorded combination Emax for C[C@@H](Nc1cc(F)cc(F)c1)c1cc(C(=O)N(C)C)cc2c(=O)cc(N3CCOCC3)oc12 [AZD8186] + C1CN(CCC1(C(=O)N[C@@H](CCO)C2=CC=C(C=C2)Cl)N)C3=NC=NC4=C3C=CN4 [AZD5363] (first compound max 10 µM, 7x7, partner max 10 µM) .
Response: 0.0947

Prompt: Now this one: CC1(C)CCC(CN2CCN(c3ccc(C(=O)NS(=O)(=O)c4ccc(NCC5CCOCC5)c([N+](=O)[O-])c4)c(Oc4cnc5[nH]ccc5c4)c3)CC2)=C(c2ccc(Cl)cc2)C1 [Venetoclax] + CCN(CCO)CCCOc1ccc2c(Nc3cc(CC(=O)Nc4cccc(F)c4)[nH]n3)ncnc2c1 [AZD2811] (first compound max 1 µM, 7x7, partner max 1 µM)
Response: 0.626

Next compound, please.
Prompt: Please report the recorded combination Emax for O=C(c1cc(Cc2n[nH]c(=O)c3ccccc23)ccc1F)N1CCN(C(=O)C2CC2)CC1 [Olaparib] + Cc1c2c(nn1C)CSCc1cc(n(C)n1)CSc1cc(c3ccccc3c1)OCCCc1c(C(=O)O)n(C)c3c-2c(Cl)ccc13 [AZD5991] (first compound max 10 µM, 7x7, partner max 1 µM) .
Response: 0.111

###

- Tested on: OCUM-1 (Gastric Carcinoma)
- protocol-description: Bliss excess, mean over the matrix (fraction); higher = more synergy
experimental-endpoint: Bliss excess
// return a plain number; no unit text

Prompt: Please report the recorded Bliss excess for O=C(c1cc(Cc2n[nH]c(=O)c3ccccc23)ccc1F)N1CCN(C(=O)C2CC2)CC1 [Olaparib] + CN(CC[C@H](CSC1=CC=CC=C1)NC2=C(C=C(C=C2)S(=O)(=O)NC(=O)C3=CC=C(C=C3)N4CCC(CC4)[C@H](C5=CC=CC=C5C6=CC=C(C=C6)Cl)O)S(=O)(=O)C(F)(F)F)CCO [AZD4320] (first compound max 10 µM, 7x7, partner max 1 µM) .
Response: 0.0129

Prompt: Now this one: CC1(C)CCC(CN2CCN(c3ccc(C(=O)NS(=O)(=O)c4ccc(NCC5CCOCC5)c([N+](=O)[O-])c4)c(Oc4cnc5[nH]ccc5c4)c3)CC2)=C(c2ccc(Cl)cc2)C1 [Venetoclax] + C1CN(CCC1(C(=O)N[C@@H](CCO)C2=CC=C(C=C2)Cl)N)C3=NC=NC4=C3C=CN4 [Capivasertib] (first compound max 1 µM, 7x7, partner max 3 µM)
Response: -0.0252

Prompt: Now this one: COc1nnc2ccc(N3CCC(c4ccc(OCCN5CCN(C)C(=O)[C@H]5C)cc4)CC3)nn12 [AZD5153] + CC1(C)CCC(CN2CCN(c3ccc(C(=O)NS(=O)(=O)c4ccc(NCC5CCOCC5)c([N+](=O)[O-])c4)c(Oc4cnc5[nH]ccc5c4)c3)CC2)=C(c2ccc(Cl)cc2)C1 [Venetoclax] (first compound max 1 µM, 7x7, partner max 1 µM)
Response: -0.0456
